MEASUREMENT TARGET: UniProtKB O04226
PROCEDURE SUMMARY: NADPH oxidation assay (full forward, physiological reaction of P5C synthetase)
CONDITION SET: read-out: IC50 (concentration inhibiting activity by 50%), cations; added as chlorides, 10mM potassium phosphate buffer pH 7.5; Mg++ data relative to equimolar NaCl
MEASUREMENT LABEL: IC50 (mM)
One number for each entry, in mM.

[Ca+2] :: 4.09

# next compound below
Give recorded IC50 with UniProtKB O04226 for the following compound: "[Mg+2]" 34.8

----------
Target sequence: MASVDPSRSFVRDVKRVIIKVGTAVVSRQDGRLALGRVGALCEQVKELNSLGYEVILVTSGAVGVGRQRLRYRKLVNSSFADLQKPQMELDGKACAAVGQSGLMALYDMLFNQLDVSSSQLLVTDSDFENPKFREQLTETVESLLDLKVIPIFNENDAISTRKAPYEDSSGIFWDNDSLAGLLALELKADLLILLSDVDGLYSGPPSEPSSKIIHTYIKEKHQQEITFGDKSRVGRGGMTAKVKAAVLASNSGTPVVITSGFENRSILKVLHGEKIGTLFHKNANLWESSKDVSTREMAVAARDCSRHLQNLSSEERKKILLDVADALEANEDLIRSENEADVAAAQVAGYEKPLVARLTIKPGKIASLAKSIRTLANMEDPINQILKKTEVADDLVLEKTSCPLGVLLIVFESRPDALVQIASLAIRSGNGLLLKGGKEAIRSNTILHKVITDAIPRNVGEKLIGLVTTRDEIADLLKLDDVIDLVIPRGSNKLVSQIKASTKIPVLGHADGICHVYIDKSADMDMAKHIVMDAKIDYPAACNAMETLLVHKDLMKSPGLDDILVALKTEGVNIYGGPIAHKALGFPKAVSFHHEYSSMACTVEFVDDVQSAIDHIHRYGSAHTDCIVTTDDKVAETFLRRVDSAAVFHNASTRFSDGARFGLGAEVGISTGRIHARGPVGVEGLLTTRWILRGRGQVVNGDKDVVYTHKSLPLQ
MEASUREMENT LABEL: Ki
Form entry: enter the amount, then its unit.

Dear colleague, I am looking for the recorded Ki of the following compound: "Nc1ncnc2c1ncn2[C@@H]1O[C@H](COP(=O)(O)OP(=O)(O)OP(=O)(O)O)[C@@H](O)[C@H]1O" 11.6 mM

----------
MEASUREMENT TARGET: Oryza sativa P5C synthetase 2 (Oryza sativa subsp. japonica)
PROCEDURE SUMMARY: NADPH oxidation assay (full forward, physiological reaction of P5C synthetase)
CONDITION SET: increasing concentrations, range tested
MEASUREMENT LABEL: effect on P5CS2 activity (in words)

O=C(O)[C@@H]1CCCCN1 [Pipecolate, pipecolic acid] :: completely ineffective
NC(=O)c1ccc[n+]([C@@H]2O[C@H](COP(=O)([O-])OP(=O)(O)OC[C@H]3O[C@@H](n4cnc5c(N)ncnc54)[C@H](O)[C@@H]3O)[C@@H](O)[C@H]2O)c1 [NAD^+] :: completely ineffective

----------
MEASUREMENT TARGET: Oryza sativa P5C synthetase 2 (Oryza sativa subsp. japonica)
PROCEDURE SUMMARY: NADPH oxidation assay (full forward, physiological reaction of P5C synthetase)
CONDITION SET: IC50 (concentration inhibiting activity by 50%)
MEASUREMENT LABEL: IC50 (mM)
One number for each entry, in mM.

O=C(O)[C@@H]1CCCN1 [L-proline] :: 2.91

# next compound below
Dear colleague, I am looking for the recorded IC50 of the following compound: NCCC[C@H](N)C(=O)O [ornithine] 52.6

----------
MEASUREMENT TARGET: Oryza sativa P5C synthetase 2 (Oryza sativa subsp. japonica)
PROCEDURE SUMMARY: NADPH oxidation assay (full forward, physiological reaction of P5C synthetase)
CONDITION SET: level above which activity is reduced
MEASUREMENT LABEL: concentrations found inhibitory (exceeding)

Dear colleague, I am looking for the recorded concentrations found inhibitory (exceeding) of the following compound: "Nc1ncnc2c1ncn2[C@@H]1O[C@H](COP(=O)(O)OP(=O)(O)O)[C@@H](O)[C@H]1O" > 4 mM
